Tested on: Rabbit LDL
Experiment: Amount of TBARS (Cu^2+-induced oxidation of rabbit LDL)
Assay type: biochemical
Details: at 10^-6 M of compound; 5 μM Cu^2+; 1 µM
Please respond with reported TBARS produced (%) for every item in the list.
Numbers only, in %.

IN: Need TBARS produced (%), item CC(C)(C)c1cc2c(c(C(C)(C)C)c1O)CC1(CCCCCCC1)O2 [Compound p]
OUT: 91.8

IN: Need TBARS produced (%), item CCCC1(CCC)Cc2c(cc(C(C)(C)C)c(O)c2C(C)(C)C)O1 [Compound e]
OUT: 86.3

Count: 5. Required value per item: TBARS produced (%).
1. C=CCOc1cc(C(C)(C)C)c(O)c(C(C)(C)C)c1C [Compound v]
2. CC(C)(C)c1cc2c(c(C(C)(C)C)c1O)CC(c1ccccc1)(c1ccccc1)O2 [Compound j]
3. CC1(C)Cc2c(cc(C(C)(C)C)c(O)c2C(C)(C)C)O1 [Compound c]
4. CCCc1c2c(c(C(C)(C)C)c(O)c1C(C)(C)C)CC(C)(C)O2 [q]
5. CCCCC1(CCCC)Cc2c(cc(C(C)(C)C)c(O)c2C(C)(C)C)O1 [Compound f]

OUT:
[99.3, 93.1, 55.3, 97.4, 81.6]

Count: 5. Required value per item: TBARS produced (%).
1. CC(C)(C)c1cc2c(C(C)(C)C)c(O)c(C(C)(C)C)cc2o1 [Compound t, 2,4,6-Tri-tert-Butyl-5-Hydroxybenzofuran]
2. CC(C)(C)c1cc2c(c(C(C)(C)C)c1O)CCO2 [Compound a]
3. Cc1cc2c(C(C)(C)C)c(O)c(C(C)(C)C)cc2o1 [Compound s]
4. CC(C)C1(C(C)C)Cc2c(cc(C(C)(C)C)c(O)c2C(C)(C)C)O1 [Compound i]
5. CCCOc1cc(C(C)(C)C)c(O)c(C(C)(C)C)c1C [Compound u]

OUT:
[81.7, 52.2, 75.7, 90.8, 87.7]

FYI, the data here is from patent US5574178A.
